system-under-test: wheat germ agglutinin (WGA) (Triticum aestivum, UniProt P10969)
Sequence (P10969 1-171 limits assumed): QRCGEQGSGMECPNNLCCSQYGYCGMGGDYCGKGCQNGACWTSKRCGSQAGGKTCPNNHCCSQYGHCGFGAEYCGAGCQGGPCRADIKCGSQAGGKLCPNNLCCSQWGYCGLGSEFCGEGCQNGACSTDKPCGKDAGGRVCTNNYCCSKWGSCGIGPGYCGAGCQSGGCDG
experimental-details: enzyme-linked lectin assay (ELLA): inhibition of binding of HRP-labeled WGA to covalently immobilized GlcNAc
Parameters: species or system Triticum vulgaris
condition-set: referenced to N,N'-diacetylchitobiose (β = 1)
attribute-measured: β (relative inhibitory potency)

Below: 3 compounds and their reported β (relative inhibitory potency).
compound	system-under-test	quantitative-readout
CC(=O)N[C@H]1[C@H](OCc2cn(Cc3ccc(Cn4cc(CO[C@@H]5O[C@H](CO)[C@@H](O[C@@H]6O[C@H](CO)[C@@H](O)[C@H](O)[C@H]6NC(C)=O)[C@H](O)[C@H]5NC(C)=O)nn4)cc3)nn2)O[C@H](CO)[C@@H](O[C@@H]2O[C@H](CO)[C@@H](O)[C@H](O)[C@H]2NC(C)=O)[C@@H]1O	wheat germ agglutinin (WGA) (Triticum aestivum, UniProt P10969)	330
CC(=O)N[C@H]1[C@H](OCc2cn(CCN(CCn3cc(CO[C@@H]4O[C@H](CO)[C@@H](O[C@@H]5O[C@H](CO)[C@@H](O)[C@H](O)[C@H]5NC(C)=O)[C@H](O)[C@H]4NC(C)=O)nn3)CCn3cc(CO[C@@H]4O[C@H](CO)[C@@H](O[C@@H]5O[C@H](CO)[C@@H](O)[C@H](O)[C@H]5NC(C)=O)[C@H](O)[C@H]4NC(C)=O)nn3)nn2)O[C@H](CO)[C@@H](O[C@@H]2O[C@H](CO)[C@@H](O)[C@H](O)[C@H]2NC(C)=O)[C@@H]1O	wheat germ agglutinin (WGA) (Triticum aestivum, UniProt P10969)	2800
CC(=O)N[C@H]1[C@H](OCc2cn(Cc3cccc(Cn4cc(CO[C@@H]5O[C@H](CO)[C@@H](O[C@@H]6O[C@H](CO)[C@@H](O)[C@H](O)[C@H]6NC(C)=O)[C@H](O)[C@H]5NC(C)=O)nn4)c3)nn2)O[C@H](CO)[C@@H](O[C@@H]2O[C@H](CO)[C@@H](O)[C@H](O)[C@H]2NC(C)=O)[C@@H]1O	wheat germ agglutinin (WGA) (Triticum aestivum, UniProt P10969)	480

(1) CC(=O)N[C@H]1[C@H](O[C@H]2[C@H](O)[C@@H](NC(C)=O)C(O)O[C@@H]2CO)O[C@H](CO)[C@@H](O)[C@@H]1O (stereo partly drawn) [N,N'-diacetylchitobiose, reference compound]
(2) CC(=O)N[C@H]1[C@H](OCc2cn(Cc3ccccc3)nn2)O[C@H](CO)[C@@H](O[C@@H]2O[C@H](CO)[C@@H](O)[C@H](O)[C@H]2NC(C)=O)[C@@H]1O
## Task # argmax over β (relative inhibitory potency) for candidates 1 and 2 Selection: enter the item's label.
## Result 2
(2: 2.1, 1: 1)

Ref: paper PMC3388869
